Data origin: patent US20170320956A1

- system: T1, recombinant human LIGHT-214E, FLAG-tagged extracellular domain (human)
- T1 construct: Trimer; Biotinylated in some assays
- T1 chain: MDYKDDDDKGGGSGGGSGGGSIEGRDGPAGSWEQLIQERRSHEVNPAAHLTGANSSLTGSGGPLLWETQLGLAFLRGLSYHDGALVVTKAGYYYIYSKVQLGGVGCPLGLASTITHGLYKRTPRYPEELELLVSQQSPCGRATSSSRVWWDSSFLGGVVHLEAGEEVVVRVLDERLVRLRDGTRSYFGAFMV
- assay: HTRF competition, AlexaFluor 647 LTβR-Fc binding to Flag-hLIGHT-214E
- Description: The following methods were carried out with a titration of inhibitor in order to establish the clone potency as measured by IC50 values in the assay. […] The final IgG4(PE) format lead panel was analysed for neutralization activity as in Example 3. […]
Below is a list of entries, each paired with its recorded IC50 value.
Answer format: numeric, nM implied, no suffix.

Solved entries (count: 3):
>  <binder>
31A10 in human IgG4(PE) format (antibody, V domains shown) VH: QVQLQESGPGLVKPSGTLSLTCAVSGGSISSINWWNWVRQPPGKGLEWIGEVSHSGITNYNPSLKSRVTMSVDKAKNQFSLKLNSVTAADTAVYYCARERAVADYHGMDVWGQGTTVTVSS VL: AIQLTQSPSSLSASVGDRVTITCRASQGISSALAWFQQKPGKPPKLLIFDASDLESGVSSRFSGSGSGTDFTLTISSLQPGDFATYYCQQFNSYPITFGQGTRLEIK

>  <IC50 [nM]>
2.19

$$$$
>  <binder>
01C02 in human IgG4(PE) format (antibody, V domains shown) VH: QVQLVQSGAEVQKPGASVMVSCKASGYTFTYYGISWVRQAPGQGLEWMGWISANSGNTNYAQKFQGRVTMTTDTSTNTAYMELRSLRTDDTAVYYCAKGGVAVLEYWGQGTLVTVSS VL: DIQLTQSPSFLSASVGDRVTITCWASQGISSYLAWYQQKPGKAPNLLIYVASTLQSGVPSRFSGSGSGTEFTLTISSLQPEDFATYYCQQLKIYPLTFGGGTKVEIK

>  <IC50 [nM]>
3.48

$$$$
>  <binder>
98C07 in human IgG4(PE) format (antibody, V domains shown) VH: QVQLVESGGGLVKPGGSLRLSCAASGFTFSDYYMSWIRQAPGKGLEWVSYISRSSFIYYSESVKGRFTISRDNAKNSLYLQMNSLRAEDTAVYYCARWELSPFDYWGQGTLVTVSS VL: DIQMTQSPSSLSASVGDRVTITCRASQGISNYLAWFQQKPGKAPKSLIYAASSLQSGVPSKFSGSGSGTDFTLTISSLQPEDFATYFCQQYNTYPFTFGPGTKVDIK

>  <IC50 [nM]>
1.62

$$$$

Consider the record given below.
[Q] Requested read-out: IC50. Entry: 13H04 in human IgG4(PE) format (antibody, V domains shown) VH: QVQLVQSGAEVKKPGASVKVSCKASGYTFTSYGISWVRQAPGQGLEWMGWISAHNANTNYAQKLQGRVTMTTDTSTSTAYMELRSLRSDDTAMYYCARLYRNWFDPWGQGTLVTVSS VL: QSALTQPASVSGSPGQSITISCTGTSSDVGGYNYVSWYQQHPGKAPKLMIYDVSKRPSGVSNRFSGSKSGNTASLTISGLQAEDEADYYCCSYAGSSTLLFGGGTKLTVL
[A] 3.15
